All figures here come from PubChem BioAssay AID1159580.

- EXPERIMENT DESCRIPTION: chemical genetic growth profiling, strain panel (AID 1159580);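 also: tested at 20 µM; growth read once vehicle control cultures reached saturation at 30 °C; 1 = growth at the plate median or of vehicle wells; lower values mean less growth of the strain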
- MEASUREMENT PARAMETERS: S. cerevisiae deletion strains, growth OD, locus YHR200W, strain rpn10
Screen size: about 5,500 compounds; about 2,000 (36%) were called active. Inconclusive results (about 18%) are left out. Rule as the data show it: active = normalized growth mostly below about 0.91 (no sharp cut-off); inconclusive = no clear call, values can overlap the other calls; inactive = mostly above about 0.92. The list shows a part of the results.
Possible outcomes: yes = active, no = inactive

COMPOUND	CLASS
COc1ccc2c(c1)[C@@]1(C)CCC(=O)C[C@H]1CC2	no
CCN(CC)C(=S)SSC(=S)N(CC)CC	yes
CC1(O)/C=C/C=C(\CO)C2CC(C)(C)C2(O)CC1 (stereo not drawn)	no
O=C1C[C@@H](c2ccc(O)cc2)Oc2cc(O)cc(O)c21	no
NC[C@@H]1O[C@H](O[C@@H]2[C@@H](CO)OC(O[C@@H]3[C@@H](O)[C@H](N)C[C@H](N)[C@H]3OC3O[C@H](CN)[C@@H](O)[C@H](O)[C@H]3N)[C@@H]2O)[C@H](N)[C@@H](O)[C@@H]1O (stereo partly drawn)	no
Cc1c(N(C)C)c(=O)n(-c2ccccc2)n1C	no
Cc1c(O)cc(O)c2c(=O)c(-c3ccc(O)cc3)coc12	no
COc1ccc(C[C@H]2NC[C@H](O)[C@H]2OC(C)=O)cc1	yes
CC(C)=CCc1c(O)cc(C)oc1=O	no
CCc1cccc(C)c1N(C(=O)CCl)C(C)COC (stereo not drawn)	no
OCc1ccccc1O[C@@H]1O[C@H](CO)[C@@H](O)[C@H](O)[C@H]1O	no
COc1ccc([C@@H]2CC(=O)c3c(O)cc(O)cc3O2)cc1O	no
C[CH2][Hg][S]c1ccccc1C(=O)O	yes
CCCCOc1ccc(CC(=O)NO)cc1	no
COc1cc(OC)c2c(c1)OC(c1ccccc1)CC2=O (stereo not drawn)	no
COc1c(O)cc2oc3cc(O)c(CC=C(C)C)c(O)c3c(=O)c2c1CC=C(C)C	yes
CC(=O)O[C@@](C)(CCC=C(C)C)C1CC=C(C)CC1 (stereo partly drawn)	no
COc1cc(O)c2c(=O)cc(C)oc2c1CC=C(C)C	no
C=CC(C)(C)c1c2c(c(O)c3c(=O)c4ccc(O)c(O)c4oc13)C=CC(C)(C)O2	yes
Cc1cc(C(C)(C)CC(C)(C)C)ccc1OCCOCC[N+](C)(C)Cc1ccccc1	yes
CCCCCC(C)N (stereo not drawn)	no
O=C1CC(c2ccc(O)cc2)Oc2ccccc21 (stereo not drawn)	no
NC(=O)N1c2ccccc2CC(=O)c2ccccc21	no

====

- EXPERIMENT DESCRIPTION: chemical genetic growth profiling, strain panel (AID 1159580);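 also: tested at 20 µM; growth read once vehicle control cultures reached saturation at 30 °C; 1 = growth at the plate median or of vehicle wells; lower values mean less growth of the strain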
- MEASUREMENT PARAMETERS: S. cerevisiae deletion strains, growth OD, locus YIL066C, strain RNR3, hits give low values
About 2,000 (36%) of roughly 5,500 compounds were called active. Roughly 18% stayed inconclusive and do not appear here. Some of the results follow.
We begin with a simple list: items and their reported normalized growth.
OBSERVABLE: normalized growth

MOLECULE	OBSERVABLE	ENDPOINT RESULT
O=C(O)C1CC([C@@H]2CCCCN2)CN2CCCCC12 (stereo partly specified)	normalized growth	1.05
CNC1(C)C2CCC(C2)C1(C)C (stereo unspecified)	normalized growth	0.989
O=C1CC(c2ccccc2)Oc2ccccc21 (stereo unspecified)	normalized growth	1
COc1cc(OC)c2c(c1)OC(c1ccccc1)CC2=O (stereo unspecified)	normalized growth	0.983
O=C1C[C@@H](c2ccccc2)Oc2cc(O)cc(O)c21	normalized growth	0.887
COc1ccc([C@@H]2CC(=O)c3c(O)cc(O)cc3O2)cc1O	normalized growth	0.979
C=C1CC[C@H](O)C/C1=C/C=C1\CCC[C@]2(C)C([C@H](C)/C=C/[C@H](C)C(C)C)CC[C@@H]12 (stereo partly specified)	normalized growth	0.968
O=C(O)COc1cc(Cl)c(Cl)cc1Cl	normalized growth	1.03
CC(=O)O[C@H]1C(=O)[C@@]2(C)C([C@H](OC(=O)c3ccccc3)[C@]3(O)C[C@H](OC(=O)[C@H](O)[C@@H](NC(=O)c4ccccc4)c4ccccc4)C(C)=C1C3(C)C)[C@]1(OC(C)=O)CO[C@@H]1C[C@@H]2O (stereo partly specified)	normalized growth	1.03
COC(=O)COc1ccc(Cl)cc1Cl	normalized growth	1.02
COC(=O)COc1cc(Cl)c(Cl)cc1Cl	normalized growth	0.948
